# System: Abeta 40 in cerebrospinal fluid (CSF) and brain
# Measurement Protocol: In vivo inhibition of beta-secretase (Abeta 40 reduction in CSF and brain)
# Test Conditions: rat, brain, Abeta 40, 10 mg/kg (10 mpk), after 4 hrs; read-out: Brain A-beta reduction % at 10 mg/kg
Readout Name: inhibition in vivo at 10 mg/kg (%)
One number for each entry, in %.

Kindly give each listed record's inhibition in vivo at 10 mg/kg.
1. Cc1ccc(-c2cc(F)c3c(c2)[C@]2(COC(N)=N2)c2cc(OCC(C)(C)C#N)ccc2O3)cn1 [Example 443]
2. N#Cc1cccc(-c2ccc3c(c2)[C@@]2(COC(N)=N2)c2cc(N4CCOCC4)nc(F)c2O3)c1 [Example 894]
3. Cc1cc(-c2cc3c(c(F)n2)Oc2ccc(-c4cccnc4F)cc2[C@@]32CSC(N)=N2)ccn1 [Example 1037]

Reply:
[7, 69, 58]

Query: What does the data say about its inhibition in vivo at 10 mg/kg? Entry: NC1=N[C@@]2(CO1)c1cc(-c3cccnc3F)c(F)cc1Oc1c(F)cc(C3=CCOCC3)cc12 (single isomer, unassigned) [Example 867]
Reply: 39

====

# Test Target: Beta Secretase enzyme (BACE) (Homo sapiens, UniProt P56817)
# Sequence (P56817 46-501, species assumed): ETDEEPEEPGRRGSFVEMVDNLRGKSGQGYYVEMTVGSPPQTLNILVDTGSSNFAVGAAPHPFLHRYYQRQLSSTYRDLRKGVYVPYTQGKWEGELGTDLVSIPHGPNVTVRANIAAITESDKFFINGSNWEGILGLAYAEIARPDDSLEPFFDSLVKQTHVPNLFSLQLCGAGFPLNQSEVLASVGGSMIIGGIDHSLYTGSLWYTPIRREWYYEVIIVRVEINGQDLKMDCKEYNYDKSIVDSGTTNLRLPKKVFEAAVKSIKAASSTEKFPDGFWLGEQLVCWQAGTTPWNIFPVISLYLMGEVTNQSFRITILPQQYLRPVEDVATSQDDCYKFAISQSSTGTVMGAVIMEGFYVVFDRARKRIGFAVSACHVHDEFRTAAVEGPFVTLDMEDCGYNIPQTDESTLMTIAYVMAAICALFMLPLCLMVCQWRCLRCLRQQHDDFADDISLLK
# Measurement Protocol: In vitro enzymatic BACE FRET (fluorescence resonance energy transfer) assay
# Format: biochemical
# Test Conditions: average IC50, enzyme assay; read-out: BACE 1 FRET assay
Consider the following molecules; for each one, report its IC50.
Numbers only, in nM.

Some solved cases for reference:
COc1ccc2c(c1)[C@@]1(COC(N)=N1)c1cc(C3(O)COC3)cc(F)c1O2 | 13300
NC1=N[C@@]2(CO1)c1cc(-c3cccnc3F)ccc1Oc1cnc(-c3ccncc3F)cc12 | 11.8
CC(C)(C#N)COc1cc(F)c2c(c1)[C@]1(COC(N)=N1)c1cc(-c3cccnc3F)c(F)cc1O2 | 0.3
NC1=N[C@@]2(CO1)c1cc(-c3cncc(F)c3)ccc1Oc1c2cc(N2CCC(F)(F)C2)nc1F | 0.4
Cc1cccc(Oc2ccc3c(c2)[C@@]2(COC(N)=N2)c2cc(N4CCOCC4)cc(F)c2O3)n1 | 73.2

Kindly give each listed record's IC50.
1. CC1(C#Cc2cnc3c(c2)[C@]2(COC(N)=N2)c2cc(-c4cc(Cl)cnc4F)ccc2O3)COC1
2. CC1(C#Cc2cc3c(cn2)Oc2ccc(-c4cccnc4F)cc2C32CSC(N)=N2)COC1 (centres unmarked)
3. CC1(C#Cc2cc3c(cn2)Oc2ccc(-c4cccc(Cl)c4)cc2[C@@]32COC(N)=N2)COC1
4. NC1=NC2(CO1)c1cc(-c3cccnc3F)ccc1Oc1c2cc(C#Cc2cccnc2)nc1F (centres unmarked)
5. COc1nc(Cl)cc2c1Oc1ccc(-c3cccnc3F)cc1[C@@]21COC(N)=N1
6. Cn1cc(-c2cc(F)c3c(c2)[C@]2(COC(N)=N2)c2cc(OCC4(C)COC4)ccc2O3)cn1

Reply:
1. 0.6
2. 1.2
3. 0.8
4. 0.9
5. 134
6. 20

Kindly give each listed record's IC50.
1. COc1cc(-c2cc3c(cn2)Oc2ccc(-c4cccc(Cl)c4)cc2[C@@]32COC(N)=N2)ccc1F
2. NC1=N[C@]2(CO1)c1cc(-c3cccnc3)ccc1Oc1c2cc(-c2cccnc2)nc1F
3. COc1nc(-c2ccnc(F)c2)cc2c1Oc1ccc(-c3cccnc3)cc1[C@@]21COC(N)=N1
4. N#Cc1cccc(-c2ccc3c(c2)[C@@]2(COC(N)=N2)c2cc(C4=CCOCC4)ccc2O3)c1
5. Cc1cnc(F)c(-c2ccc3c(c2)[C@@]2(COC(N)=N2)c2cc(N4CCOCC4)cc(F)c2O3)c1
6. CC1(/C=C/c2cnc3c(c2)[C@]2(COC(N)=N2)c2cc(-c4ccc(F)nc4)ccc2O3)COC1

Reply:
1. 5.2
2. 301
3. 2.1
4. 9.4
5. 1.5
6. 1.2

Kindly give each listed record's IC50.
1. Cc1ccnn1-c1cc(F)c2c(c1)[C@]1(COC(N)=N1)c1cc(O)ccc1O2
2. CC(C)(C)COc1ccc2c(c1)[C@]1(COC(N)=N1)c1cc(-c3cncnc3)c(F)cc1O2
3. NC1=N[C@@]2(CS1)c1cc(-c3cccnc3F)ccc1Oc1ncc(C3=CCCOC3)cc12

Reply:
[21.4, 103, 0.7]

Kindly give each listed record's IC50.
1. N#Cc1cc(-c2ccc3c(c2)[C@@]2(CSC(N)=N2)c2cc(C4=CCCOC4)cnc2O3)ccc1F
2. C[C@@](C#Cc1cnc2c(c1)[C@]1(COC(N)=N1)c1cc(-c3cccnc3F)ccc1O2)(CO)CCl (single isomer, unassigned) [Example 1014]
3. CC1(COc2ccc3c(c2)[C@@]2(COC(N)=N2)c2cc(C4=CCOCC4)cc(F)c2O3)COC1
4. CC#Cc1cnc(F)c(-c2ccc3c(c2)[C@@]2(COC(N)=N2)c2cc(C#CC4(C)COC4)cnc2O3)c1
5. NC1=N[C@@]2(CO1)c1cc(-c3cccnc3)ccc1Oc1c(F)cc(N3CCCC3=O)cc12
6. Cc1nc(F)ccc1-c1ccc2c(c1)[C@@]1(COC(N)=N1)c1cc(C3=CCOCC3)ncc1O2

Reply:
[0.6, 2.2, 9, 0.5, 5.1, 26.8]
